Entry source: patent US10941147B2

system.under.test: γ-secretase (Homo sapiens, UniProt P49768)
Construct: Human neuroglioma H4 cells overexpressing human APP695; endogenous in cells
assay.explanation: Cellular γ-secretase assay (inhibition of Aβ42 secretion, AlphaLisa)
test.settings: Human neuroglioma H4 cells overexpressing human APP695 Swedish double mutation; 24 hr compound incubation; secreted Aβ42 in supernatant
# note: boundary value 40 nM maps to N; EC50 below it maps to Y

Task item: I wonder whether Cc1cc(N2C[C@H]3CC[C@@H](C2)[C@@H]3Nc2nc3n(n2)CCCCC3c2cccc(C(F)(F)F)c2)ncn1 (mixture of isomers) has EC50 below 40 nM. Can you tell?
Reply: Y

Task item: I wonder whether Fc1ccc([C@@H]2CCCCn3nc(N[C@@H]4[C@@H]5CC[C@H]4CN(c4cc(Cl)ncn4)C5)nc32)c(F)c1F has EC50 below 40 nM. Can you tell?
Reply: Y

Task item: I wonder whether Cc1cc(N2C[C@H]3CC[C@@H](C2)[C@@H]3Nc2nc3n(n2)CCCC[C@H]3c2ccc(C(F)(F)F)cc2)ncn1 has EC50 below 40 nM. Can you tell?
Reply: Y

Task item: I wonder whether FC(F)(F)c1ccc(C2CCCCn3nc(N[C@@H]4[C@@H]5CC[C@H]4CN(c4ccnc(C(F)(F)F)c4)C5)nc32)cc1 (some centres unmarked) has EC50 below 40 nM. Can you tell?
Reply: N

Task item: I wonder whether Cc1ncnc(N2C[C@H]3CC[C@@H](C2)[C@@H]3Nc2nc3n(n2)CCCCC3c2ccc(F)c(F)c2F)c1F (some centres unmarked) has EC50 below 40 nM. Can you tell?
Reply: Y
